The measurements presented in this section are drawn from ChEMBL document CHEMBL4834401.

# Target of assay: G-protein coupled receptor 35 (Homo sapiens, UniProt Q9HC97)
# Sequence (Q9HC97 whole entry): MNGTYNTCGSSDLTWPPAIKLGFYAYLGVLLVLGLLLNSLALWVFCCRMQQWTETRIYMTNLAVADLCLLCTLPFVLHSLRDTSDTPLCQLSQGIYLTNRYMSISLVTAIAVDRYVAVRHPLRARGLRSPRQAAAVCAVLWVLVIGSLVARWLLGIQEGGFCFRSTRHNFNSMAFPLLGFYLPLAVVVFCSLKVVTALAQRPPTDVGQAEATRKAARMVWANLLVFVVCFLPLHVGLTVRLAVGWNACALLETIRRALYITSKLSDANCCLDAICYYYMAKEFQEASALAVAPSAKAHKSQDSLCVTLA
# Experiment: Agonist activity at human GPR35 receptor expressed in HT-29 cells assessed as dynamic mass redistribution response by DMR assay
# Type: functional, cell-based
Property: EC50 (nM)

For orientation, consider the following solved cases.
>  <Structure smiles string>
O=C(O)c1cc2c(oc1=O)c(Br)cc1cc(-c3nnn[nH]3)c(=O)oc12

>  <Quantity unit>
nM

>  <EC50>
18

$$$$
>  <Structure smiles string>
COc1cc(C(=O)O)nc2c(C)c3nc(C(=O)O)cc(OC)c3cc12

>  <Quantity unit>
nM

>  <EC50>
100

$$$$
>  <Structure smiles string>
COc1ccccc1-c1cc2cc(C(=O)O)c(=O)oc2cc1O

>  <Quantity unit>
nM

>  <EC50>
23900

$$$$
>  <Structure smiles string>
COc1cccc(-c2cc3cc(C(=O)O)c(=O)oc3cc2O)c1

>  <Quantity unit>
nM

>  <EC50>
1600

$$$$
>  <Structure smiles string>
Cc1c2nc(C(=O)O)cc(Cl)c2cc2c(Cl)cc(C(=O)O)nc12

>  <Quantity unit>
nM

>  <EC50>
54

$$$$
>  <Structure smiles string>
O=C(O)c1cc2cc(-c3cccs3)c(O)cc2oc1=O

>  <Quantity unit>
nM

>  <EC50>
2880

$$$$
>  <Structure smiles string>
O=C(O)c1cc(C(=O)O)c2c(n1)C(=O)C(=O)c1cc(C(=O)O)[nH]c1-2

>  <Quantity unit>
nM

>  <EC50>
71

$$$$
>  <Structure smiles string>
COc1ccc(-c2cc3cc(C(=O)O)c(=O)oc3c3cc(C(=O)O)c(=O)oc23)cc1

>  <Quantity unit>
nM

>  <EC50>
20

$$$$

1 = Cc1c2oc(=O)c(C(=O)O)cc2cc2cc(C(=O)O)c(=O)oc12
2 = Cc1c2[nH]c(C(=O)O)cc(=O)c2cc2c(=O)cc(C(=O)O)[nH]c12
// which entry reports the smaller EC50, 1 or 2 ? // caller expects the label of the chosen entry
2
(2: 8 nM, 1: 140 nM)

a = O=C(O)c1cc2c(oc1=O)c(-c1ccc(F)cc1)cc1cc(C(=O)O)c(=O)oc12
b = COc1cccc(-c2cc3cc(C(=O)O)c(=O)oc3c3cc(C(=O)O)c(=O)oc23)c1
# argmax over EC50 for candidates a and b Your answer should be the label attached to the chosen record.
a
(a: 33 nM, b: 15 nM)
